- assayExplanation: Hematology assays in cynomolgus monkeys (Example 46)
- Format: in vivo
- experimentalConditions: Day 55
Strand notation (5' to 3'): a small letter for the sugar, then the base; units joined by * are phosphorothioate-linked, units joined directly phosphodiester-linked; [ ] holds rarer units or linkages, { } end groups; capitals alone tell only the bases. e = 2'-O-(2-methoxyethyl) (MOE); [5mC] = 5-methylcytosine; d = 2'-deoxy (DNA)
readoutLabel: monocytes (%)
One number for each entry, in %.

Solved entries (count: 4):
* ISIS 416850: MOE gapmer, nucleobases 1275 to 1318 of SEQ ID NO: 1 (Table 8) (antisense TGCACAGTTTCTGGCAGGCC; MOE gapmer, wing and gap sizes not given here) | 3.4
* ISIS 449711: 3-8-3, 4-8-4, 2-10-2, 3-10-3 or 4-10-4 MOE microwalk gapmer (Table 46) (antisense eA*e[5mC]*dA*dG*dT*dT*dT*d[5mC]*dT*dG*dG*d[5mC]*eA*eG) | 7.8
* ISIS 449709: 3-8-3, 4-8-4, 2-10-2, 3-10-3 or 4-10-4 MOE microwalk gapmer (Table 46) (antisense eG*e[5mC]*eA*e[5mC]*dA*dG*dT*dT*dT*d[5mC]*dT*dG*dG*d[5mC]*eA*eG*eG*e[5mC]) | 3.4
* ISIS 445522: 5-8-5 or 6-8-6 MOE microwalk gapmer (Table 44) (antisense eG*e[5mC]*eA*e[5mC]*eA*dG*dT*dT*dT*d[5mC]*dT*dG*dG*e[5mC]*eA*eG*eG*e[5mC]) | 3.0

// field: monocytes; key: ISIS 445531: 5-8-5 or 6-8-6 MOE microwalk gapmer (Table 44) (antisense eG*eG*e[5mC]*eA*eT*dT*dG*dG*dT*dG*d[5mC]*dA*d[5mC]*eA*eG*eT*eT*eT) ; value = 4.1

* * *

- assayExplanation: Hematology assays in cynomolgus monkeys (Example 45)
- Assay type: in vivo
- experimentalConditions: day 36; escalating dose regimen
readoutLabel: RBC count (µL⁻¹)
Give bare numbers, in µL⁻¹.

- ISIS 416850: MOE gapmer, nucleobases 1275 to 1318 of SEQ ID NO: 1 (Table 8) (antisense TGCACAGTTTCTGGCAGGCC; MOE gapmer, wing and gap sizes not given here): 5.3e+06

API: the following record is the query input.
// field: RBC count; key: ISIS 416858: MOE gapmer, nucleobases 1275 to 1318 of SEQ ID NO: 1 (Table 8) (antisense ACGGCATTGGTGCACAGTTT; MOE gapmer, wing and gap sizes not given here) ; value = 5.5e+06

* * *

- experimentalConditions: rat, in vivo, sc, 50 mg/kg
e = 2'-O-(2-methoxyethyl) (MOE); d = 2'-deoxy (DNA)
readoutLabel: MCHC

• ISIS 416999: MOE gapmer, nucleobases 1275 to 1318 of SEQ ID NO: 1 (Table 8) (antisense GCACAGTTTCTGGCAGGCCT; MOE gapmer, wing and gap sizes not given here) = 1%
• ISIS 417003: MOE gapmer, nucleobases 1275 to 1318 of SEQ ID NO: 1 (Table 8) (antisense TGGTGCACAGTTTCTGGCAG; MOE gapmer, wing and gap sizes not given here) = 4%
• ISIS 416826: 5-10-5 MOE gapmer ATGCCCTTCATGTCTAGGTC (sugars from the 5' end e5 d10 e5, backbone and methylation of C not given here) = 4%
• ISIS 416892: 3-14-3 MOE gapmer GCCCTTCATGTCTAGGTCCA (sugars from the 5' end e3 d14 e3, backbone and methylation of C not given here) = 0%
• ISIS 416825: 5-10-5 MOE gapmer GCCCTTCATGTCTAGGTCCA (sugars from the 5' end e5 d10 e5, backbone and methylation of C not given here) = 4%

API: the following record is the query input.
// field: MCHC; key: ISIS 416925: MOE gapmer, nucleobases 1275 to 1318 of SEQ ID NO: 1 (Table 8) (antisense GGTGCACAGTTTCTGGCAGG; MOE gapmer, wing and gap sizes not given here) ; value = 4%
